From: patent US20120122692A1

Tested on: silvery thread moss
Test: Field test of spray treatments on silvery thread moss in a creeping bentgrass putting green: percent moss cover
Assay type: in vivo, Bryum argenteum
Settings: 12 Sep
readout label: % Moss Cover (%)
Respond numerically; units are % and should not be typed.

Example cases with answers are listed next.
>>> df
                                   compound  numeric_readout
0  Cc1nn(-c2cc(CC(Cl)C(=O)O)c(Cl)cc2F)c(=O)n1C(F)F (stereo not drawn) [ES11, Carfentrazone]             65.8
1  Cc1nn(-c2cc(CC(Cl)C(=O)O)c(Cl)cc2F)c(=O)n1C(F)F (stereo not drawn) [Treatment E11, Carfentrazone]             66.0
2  Cc1nn(-c2cc(CC(Cl)C(=O)O)c(Cl)cc2F)c(=O)n1C(F)F (stereo not drawn) [Treatment E13, Carfentrazone]             73.8

Prompt: Item Cc1nn(-c2cc(CC(Cl)C(=O)O)c(Cl)cc2F)c(=O)n1C(F)F (stereo not drawn) [ES13, Carfentrazone] has what recorded % Moss Cover?
Response: 75.0

Prompt: Item Cc1nn(-c2cc(CC(Cl)C(=O)O)c(Cl)cc2F)c(=O)n1C(F)F (stereo not drawn) [Treatment E16, Carfentrazone] has what recorded % Moss Cover?
Response: 59.0

Prompt: Item Cc1nn(-c2cc(CC(Cl)C(=O)O)c(Cl)cc2F)c(=O)n1C(F)F (stereo not drawn) [ES16, Carfentrazone] has what recorded % Moss Cover?
Response: 61.8

---

Test system: “Penncross” creeping bentgrass Agrostis stolonifera L.
Test: Field test of spray treatments on a creeping bentgrass putting green: turf quality / phytotoxicity rating
Format: in vivo
Conditions: 9 Oct; scale 1-10: 10=best turf, no phytotoxicity; 6=lowest acceptable; 1=completely brown turf
Each item that follows carries a reported Turf Quality.

Example cases with answers are listed next.
In [3]: df
Out[3]:
                                   compound                        measurement_target  readout_label  result
0  Cc1nn(-c2cc(CC(Cl)C(=O)O)c(Cl)cc2F)c(=O)n1C(F)F (stereo not drawn) [Treatment E16, Carfentrazone]  “Penncross” creeping bentgrass Agrostis stolonifera L.   Turf Quality     9.6
1  Cc1nn(-c2cc(CC(Cl)C(=O)O)c(Cl)cc2F)c(=O)n1C(F)F (stereo not drawn) [Treatment E11, Carfentrazone]  “Penncross” creeping bentgrass Agrostis stolonifera L.   Turf Quality    10.0
2  Cc1nn(-c2cc(CC(Cl)C(=O)O)c(Cl)cc2F)c(=O)n1C(F)F (stereo not drawn) [ES11, Carfentrazone]  “Penncross” creeping bentgrass Agrostis stolonifera L.   Turf Quality    10.0
3  Cc1nn(-c2cc(CC(Cl)C(=O)O)c(Cl)cc2F)c(=O)n1C(F)F (stereo not drawn) [ES13, Carfentrazone]  “Penncross” creeping bentgrass Agrostis stolonifera L.   Turf Quality    10.0
4  Cc1nn(-c2cc(CC(Cl)C(=O)O)c(Cl)cc2F)c(=O)n1C(F)F (stereo not drawn) [ES16, Carfentrazone]  “Penncross” creeping bentgrass Agrostis stolonifera L.   Turf Quality    10.0

Next item in the queue.
Prompt: Missing value: Turf Quality, “Penncross” creeping bentgrass Agrostis stolonifera L., entry Cc1nn(-c2cc(CC(Cl)C(=O)O)c(Cl)cc2F)c(=O)n1C(F)F (stereo not drawn) [Treatment E13, Carfentrazone] . Fill in?
Response: 10.0
